Give measured koff for each item. Keep answers brief.
Molecular target: T1, recombinant human ErbB3/Fc fusion protein (human, UniProt P21860 20-643)
T1 construct: Bought (R&D Systems, Cat. No. 348-RB); the NRG1-α1 assay names Cat. No. 4518-RB instead; also called rhErbB3-Fc; rhErbB3/Fc; not shown: Fc portion of the bought fusion protein
Experiment: SPR Biacore T100, 25 C; antibody captured on anti-mouse IgG, rhErbB3-Fc injected
Please append the unit to your numeric answer.

Sample answers from the record:
Binder	Reading
09D03 (antibody, mouse IgG2b, kappa, V domains shown, Murine IgG2b/kappa, from hybridoma; also called anti-hErbB3 monoclonal antibody 09D03) VH: QVTLKESGPGILRPSQTLSLTCSFSGFSLSTFGLSVGWIRQPSGKGLEWLAHIWWDDDKYYNPALKSRLTISKDTSKNQVFLKIANVDTADTATYYCARIGADALPFDYWGQGTTLTVSS VL: DIVLTQTAPSVPVTPGESVSISCRSSKSLLHSNGNTYLYWFLQRPGQSPQLLIYRMSNLASGVPDRFSGSGSGTAFTLRISRVEAEDVGVYYCMQHLEYPFTFGSGTKLEIKR	2e-05 s⁻¹
12A07 (antibody, mouse IgG1, kappa, V domains shown, Murine IgG1/kappa, from hybridoma; also called anti-hErbB3 monoclonal antibody 12A07) VH: QVQLLQPGAELVRPGTSVKLSCKTSGYTFSSYWMHWVKQRPGQGLEWIGMIDPSDVYTNYNPKFKGKATLTVDTSSSTAYMQLSSLTSEDSAVYYCARNYSGDYWGQGTTLTVSS VL: DVLMTQIPLSLPVSLGDQASISCRSSQSIVHSNGNTYLEWYLQKPGQSPKLLIYKVSNRFSGVPDRFSGSGSGTDFTLKISRVEAEDLGVYYCFQGSYVPWTFGGGTKLEIKR	0.00019 s⁻¹
04D01 (antibody, mouse IgG1, kappa, V domains shown, Murine IgG1/kappa, purified from hybridoma; also called anti-hErbB3 monoclonal antibody 04D01) VH: QVQLQQPGAELVRPGTSVKLSCKASGYTFTSHWLHWVKQRPGQGLEWIGVLDPSDFYSNYNQNFKGKATLTVDTSSSTAYMQLSSLTSEDSAVYYCARGLLSGDYAMDYWGQGTSVTVSS VL: DVLMTQIPLSLPVSLGDQASISCRSSQSIVHSNGNTYLEWYLQKPGQSPKSLIYKVSNRFSGVPDRFSGSGSGTDFTLKISRVEAEDLGVYYCFQGSYVPWTFGGGTKLEIKR	9.3e-05 s⁻¹
11G01 (antibody, mouse IgG1, kappa, V domains shown, Murine IgG1/kappa, from hybridoma; also called anti-hErbB3 monoclonal antibody 11G01) VH: QVQLQQSDAELVKPGASVKISCKVSGYTFTDHIIHWMKQRPEQGLEWIGYIYPRDGYIKYNEKFKGKATLTADKSSSTAYMQVNSLTSEDSAVYFCARGYYYAMDYWGQGTSVTVSS VL: DVLMTQTPLSLPVSLGDQASISCRSSQSIVHSIGNTYLEWYLQKPGQSPKLLIYKVSNRFSGVPERFSGSGSGTDFTLKISRVEAEDLGVYYCFQGSHVPFTFGSGTKLEIKR	2.2e-05 s⁻¹

Quick one: give me koff for each item below, same order please.
1. 18H02 (antibody, mouse IgG1, kappa, V domains shown, Murine IgG1/kappa, from hybridoma; also called anti-hErbB3 monoclonal antibody 18H02) VH: QIQLVQSGPELKKPGEAVKISCKSSGYTFTTYGMSWVKQAPGRALKWMGWINTYSGVPTYADDFKGRFAFSLESSASTAYLQINNLKNEDTATYFCARGRDGYQVAWFAYWGQGTLVTVSA VL: ETTVTQSPASLSMAIGDKVTIRCITSTDIDDDMNWFQQKPGEPPKLLISEGNTLRPGVPSRFSGSGYGTDFIFTIENMLSEDVADYYCLQSDNLPYTFGGGTKLEIKR
2. 22A02 (antibody, mouse IgG1, kappa, V domains shown, Murine IgG1/kappa, from hybridoma; also called anti-hErbB3 monoclonal antibody 22A02) VH: QVQLQQPGAELVRPGTSVKLSCKASGYTFTNYWMHWVKQRPGQGLEWIGMIDPSDSYTNYNPKFKGKATLTVDTSSSTAYMQLSSLTSEDSAVYYCARNYSGDYWGQGTTLTVSS VL: DVLMTQTPLSLPVSLGDQASISCRSSQSIVHSNGNTYLEWYLQKPGQSPKLLIYKVSNRFSGVPDRFSGSGSGTDFTLKISRVEAEDLGVYYCFQGSYVPWTFGGGTKLEIKR

Response:
1. 2.5e-05 s⁻¹
2. 0.00022 s⁻¹
